- system: 5-HT1F receptor (Homo sapiens, UniProt P30939)
- Construct: expressed in transfected cells; host or cells: Ltk- cells (mouse fibroblasts)
- Sequence (P30939 whole entry): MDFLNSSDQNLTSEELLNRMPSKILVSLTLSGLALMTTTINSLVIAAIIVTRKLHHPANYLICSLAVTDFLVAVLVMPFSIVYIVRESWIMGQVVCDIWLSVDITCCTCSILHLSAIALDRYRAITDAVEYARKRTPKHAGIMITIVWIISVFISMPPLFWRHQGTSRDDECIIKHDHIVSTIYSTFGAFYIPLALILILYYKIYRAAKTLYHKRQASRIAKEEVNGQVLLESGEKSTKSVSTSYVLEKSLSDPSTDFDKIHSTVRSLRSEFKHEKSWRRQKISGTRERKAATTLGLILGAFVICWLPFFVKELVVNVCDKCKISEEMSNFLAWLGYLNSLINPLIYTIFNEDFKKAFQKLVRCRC
- protocol.summary: [3H]5-HT radioligand binding to the cloned 5-HT1F receptor (membranes of transfected Ltk- cells)
Structures can show the parent of a compound that is named as a salt.
Ki values, listed per item
Please answer using the number first and the unit second.

INSERT INTO assay_data (compound, system, value) VALUES
  ('CCN(CC)C1CCc2cccc(Cl)c2C1 (centres unmarked) [Compound IV, hydrochloride]', '5-HT1F receptor (Homo sapiens, UniProt P30939)', '0.129 µM');

Problem: // lookup Ki for O=C(O)C(=O)O.Oc1ccc2[nH]cc(C3CCNCC3)c2c1 [Compound III, oxalate]
Result: 0.022 µM

----------
- system: 5-HT1Dα (Homo sapiens)
- Construct: expressed in transfected cells
- protocol.summary: [3H]5-HT radioligand binding to the cloned 5-HT1Dα receptor
- assay.conditions: cloned receptor, [3H]5-HT displacement, 37°C
Where a name gives a salt, the structure may show the parent alone.
metric.name: Ki (nM)
Your answer should be a plain number; it is taken to be in nM.

Problem: // lookup Ki for Cn1cc(CCN2CCC(c3c[nH]c4ccc(F)cc34)CC2)cn1 [Compound II, hydrochloride]
Result: 21.7

----------
- system: 5-HT1F receptor (Homo sapiens)
- Construct: expressed in transfected cells; host or cells: Ltk- cells (mouse fibroblasts)
- protocol.summary: [3H]5-HT radioligand binding to the cloned 5-HT1F receptor (membranes of transfected Ltk- cells)
- assay.conditions: cloned receptor, [3H]5-HT displacement, 37°C
Counter-ions that a name gives are not always drawn.
metric.name: Ki (nM)
Your answer should be a plain number; it is taken to be in nM.

INSERT INTO measurements (molecule, metric_name, value) VALUES
  ('Cn1cc(CCN2CCC(c3c[nH]c4ccc(F)cc34)CC2)cn1 [Compound II, hydrochloride]', 'Ki', 2.5);

Kindly consider the entry below.
Problem: // lookup Ki for CN(C)C1CCc2[nH]c3ccc(O)cc3c2C1 (centres unmarked)
Result: 10.3

----------
pKi values, listed per item
- system: 5-HT1Dα (Homo sapiens, UniProt P28221)
- Construct: expressed in transfected cells
- Sequence (P28221 whole entry): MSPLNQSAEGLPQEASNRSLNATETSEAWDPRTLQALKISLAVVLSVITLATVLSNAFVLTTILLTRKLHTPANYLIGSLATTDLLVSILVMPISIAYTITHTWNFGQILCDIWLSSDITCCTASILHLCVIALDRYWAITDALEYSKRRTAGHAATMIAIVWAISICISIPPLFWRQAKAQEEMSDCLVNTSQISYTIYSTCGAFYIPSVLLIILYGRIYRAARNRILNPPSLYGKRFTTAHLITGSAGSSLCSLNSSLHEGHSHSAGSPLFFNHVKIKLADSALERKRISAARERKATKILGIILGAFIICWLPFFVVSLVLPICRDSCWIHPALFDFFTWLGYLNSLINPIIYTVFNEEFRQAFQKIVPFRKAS
- protocol.summary: [3H]5-HT radioligand binding to the cloned 5-HT1Dα receptor
Structures can show the parent of a compound that is named as a salt.
# pKi is unitless: minus log10 of the molar concentration; print number only

Solved cases (2 shown):
INSERT INTO measurements (molecule, metric_name, value) VALUES
  ('CCN(CC)C1CCc2cccc(Cl)c2C1 (stereo not drawn) [Compound IV, hydrochloride]', 'pKi', 7.87),
  ('CN(C)C1CCc2[nH]c3ccc(O)cc3c2C1 (stereo not drawn)', 'pKi', 6.10);

Kindly consider the entry below.
Problem: // lookup pKi for O=C(O)C(=O)O.Oc1ccc2[nH]cc(C3CCNCC3)c2c1 [Compound III, oxalate]
Result: 6.79

----------
- system: UniProt P28222
- Sequence (P28222 whole entry): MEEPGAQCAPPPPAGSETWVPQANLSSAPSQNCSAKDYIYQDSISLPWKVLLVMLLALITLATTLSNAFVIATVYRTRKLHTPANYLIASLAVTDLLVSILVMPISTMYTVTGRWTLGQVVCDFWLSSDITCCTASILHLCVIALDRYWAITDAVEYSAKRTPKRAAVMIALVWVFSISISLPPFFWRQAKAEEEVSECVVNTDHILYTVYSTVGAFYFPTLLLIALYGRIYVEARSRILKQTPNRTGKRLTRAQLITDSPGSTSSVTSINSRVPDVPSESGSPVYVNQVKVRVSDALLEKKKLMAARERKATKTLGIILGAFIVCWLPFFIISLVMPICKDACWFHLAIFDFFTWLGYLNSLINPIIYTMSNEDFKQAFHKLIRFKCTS
- protocol.summary: [3H]5-HT radioligand binding to the cloned 5-HT1Dβ receptor
- assay.conditions: cloned receptor, [3H]5-HT displacement, 37°C
Counter-ions that a name gives are not always drawn.
metric.name: Ki

Problem: // lookup Ki for Cn1cc(CCN2CCC(c3c[nH]c4ccc(F)cc34)CC2)cn1 [Compound II, hydrochloride]
Result: 53.6 nM
